biological target: Prostaglandin E2 receptor EP4 subtype (Mus musculus, UniProt P32240); assay: Antagonist activity at mouse EP4 expressed in CHO cells coexpressing G16-alpha assessed as intracellular calcium flux preincubated for 15 mins followed by addition of PGE2 by calcium flux assay
Sequence (P32240 whole entry): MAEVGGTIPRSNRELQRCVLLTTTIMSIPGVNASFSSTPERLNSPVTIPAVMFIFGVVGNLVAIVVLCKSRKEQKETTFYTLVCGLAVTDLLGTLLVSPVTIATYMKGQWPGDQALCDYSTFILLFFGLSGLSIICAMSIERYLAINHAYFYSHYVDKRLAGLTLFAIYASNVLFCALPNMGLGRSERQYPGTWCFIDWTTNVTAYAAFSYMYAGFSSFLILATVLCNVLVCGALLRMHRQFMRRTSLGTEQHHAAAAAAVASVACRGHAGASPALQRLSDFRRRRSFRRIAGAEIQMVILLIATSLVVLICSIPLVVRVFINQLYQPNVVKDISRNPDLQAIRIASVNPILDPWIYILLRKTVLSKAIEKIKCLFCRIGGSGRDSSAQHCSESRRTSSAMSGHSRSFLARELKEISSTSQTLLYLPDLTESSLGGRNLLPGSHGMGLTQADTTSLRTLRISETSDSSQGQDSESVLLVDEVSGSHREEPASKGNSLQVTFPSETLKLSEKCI
Measured IC50 of individual entries
MEASURED PROPERTY: IC50 (nM)

[[record]]
compound = "C[C@H](NC(=O)c1c(-c2ccccc2)nnn1CCOc1ccc(F)cc1)c1ccc(C(=O)O)cc1"
u = "nM"
recorded_value = 132

[[record]]
compound = "C/C=C/c1nnn(Cc2ccc(C(F)(F)F)cc2)c1C(=O)NCC1CCC(C(=O)O)CC1 (stereo not drawn)"
u = "nM"
recorded_value = 220

[[record]]
compound = "C[C@H](NC(=O)c1c(C2=CCCC2)nnn1Cc1ccc(C(F)(F)F)cc1)c1ccc(C(=O)O)cc1"
u = "nM"
recorded_value = 400

[[record]]
compound = "CC#Cc1nnn(Cc2ccc(C(F)(F)F)cc2)c1C(=O)N[C@@H](C)c1ccc(C(=O)O)cc1"
u = "nM"
recorded_value = 70.9

[[record]]
compound = "Cc1ccc(-c2nnn(Cc3ccc(C(F)(F)F)cc3)c2C(=O)N[C@@H](C)c2ccc(C(=O)O)cc2)s1"
u = "nM"
recorded_value = 42.1

[[record]]
compound = "C/C=C/c1nnn(Cc2ccc(C(F)(F)F)cc2)c1C(=O)NC1(c2ccc(C(=O)O)cc2)CC1"
u = "nM"
recorded_value = 33.7

[[record]]
compound = "C/C=C/c1nnn(Cc2ccc(C(F)(F)F)cc2)c1C(=O)N[C@@H](C)c1ccc(C(=O)O)cc1"
u = "nM"
recorded_value = 16.2

[[record]]
compound = "C[C@H](NC(=O)c1c(-c2ccccc2)nnn1Cc1ccc(C(F)(F)F)cc1)c1ccc(C(=O)O)cc1"
u = "nM"
recorded_value = 906

[[record]]
compound = "C[C@H](NC(=O)c1c(-c2ccccc2)nnn1CCOc1cccc(C(F)(F)F)c1)c1ccc(C(=O)O)cc1"
u = "nM"
recorded_value = 135

[[record]]
compound = "C[C@H](NC(=O)c1c(-c2ccsc2)nnn1Cc1ccc(C(F)(F)F)cc1)c1ccc(C(=O)O)cc1"
u = "nM"
recorded_value = 27.5

[[record]]
compound = "C[C@H](NC(=O)c1c(-c2ccoc2)nnn1Cc1ccc(C(F)(F)F)cc1)c1ccc(C(=O)O)cc1"
u = "nM"
recorded_value = 57.6

[[record]]
compound = "C/C=C/c1nnn(Cc2ccc(C(F)(F)F)cc2)c1C(=O)NCc1ccc(C(=O)O)cc1"
u = "nM"
recorded_value = 130

[[record]]
compound = "C[C@H](NC(=O)c1c(C(F)F)nn(C)c1Oc1cccc(C(F)(F)F)c1)c1ccc(C(=O)O)cc1"
u = "nM"
recorded_value = 181


---

Item-by-item account of inhibition at 1 h, 20 µM
target: CYP2E1 (Homo sapiens); assay: Inhibition of CYP2E1 in human liver microsomes at 20 uM using chlorzoxazone as substrate incubated for 60 mins by HPLC analysis relative to control; format: ADME; conditions: probe chlorzoxazone
Sequence (P05181 whole entry): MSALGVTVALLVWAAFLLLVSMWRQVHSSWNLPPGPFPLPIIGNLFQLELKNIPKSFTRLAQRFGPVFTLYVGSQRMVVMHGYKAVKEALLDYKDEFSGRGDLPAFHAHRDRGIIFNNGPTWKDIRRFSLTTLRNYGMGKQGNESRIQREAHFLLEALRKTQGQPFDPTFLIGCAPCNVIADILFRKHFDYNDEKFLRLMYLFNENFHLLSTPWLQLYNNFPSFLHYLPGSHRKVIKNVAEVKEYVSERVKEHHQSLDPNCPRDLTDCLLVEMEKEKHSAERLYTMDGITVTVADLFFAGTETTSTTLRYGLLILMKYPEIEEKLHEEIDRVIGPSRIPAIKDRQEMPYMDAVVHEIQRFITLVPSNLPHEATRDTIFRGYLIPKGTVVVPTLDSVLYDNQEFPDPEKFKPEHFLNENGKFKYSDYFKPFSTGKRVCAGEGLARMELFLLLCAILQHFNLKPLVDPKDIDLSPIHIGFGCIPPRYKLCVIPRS
MEASURED PROPERTY: inhibition at 1 h, 20 µM (%)

[[record]]
smiles_data = "C[C@H](NC(=O)c1c(-c2ccsc2)nnn1Cc1ccc(C(F)(F)F)cc1)c1ccc(C(=O)O)cc1"
measured_property = "inhibition at 1 h, 20 µM"
recorded_value = 63

[[record]]
smiles_data = "C[C@H](NC(=O)c1c(C(F)F)nn(C)c1Oc1cccc(C(F)(F)F)c1)c1ccc(C(=O)O)cc1"
measured_property = "inhibition at 1 h, 20 µM"
recorded_value = 79

[[record]]
smiles_data = "CC#Cc1nnn(Cc2ccc(C(F)(F)F)cc2)c1C(=O)N[C@@H](C)c1ccc(C(=O)O)cc1"
measured_property = "inhibition at 1 h, 20 µM"
recorded_value = 76

[[record]]
smiles_data = "C[C@H](NC(=O)c1c(-c2ccccc2)nnn1CCOc1cccc(C(F)(F)F)c1)c1ccc(C(=O)O)cc1"
measured_property = "inhibition at 1 h, 20 µM"
recorded_value = 67

[[record]]
smiles_data = "C/C=C/c1nnn(Cc2ccc(C(F)(F)F)cc2)c1C(=O)N[C@@H](C)c1ccc(C(=O)O)cc1"
measured_property = "inhibition at 1 h, 20 µM"
recorded_value = 66


Value source: ChEMBL document CHEMBL4376865
